B1: Mint1-CID (residues 338-397) [not stated] / CASK-CaMK (residues 1-337) [not stated] (parent)
chain 1: QRYSKEKRDAISLAIKDIKEAIEEVKTRTIRSPYTPDEPKEPIWVMRQDISPTRDCDDQR
chain 2: MADDDVLFEDVYELCEVIGKGPFSVVRRCINRETGQQFAVKIVDVAKFTSSPGLSTEDLKREASICHMLKHPHIVELLETYSSDGMLYMVFEFMDGADLCFEIVKRADAGFVYSEAVASHYMRQILEALRYCHDNNIIHRDVKPHCVLLASKENSAPVKLGGFGVAIQLGESGLVAGGRVGTPHFMAPEVVKREPYGKPVDVWGCGVILFILLSGCLPFYGTKERLFEGIIKGKYKMNPRQWSHISESAKDLVRRMLMLDPAERITVYEALNHPWLKERDRYAYKIHLPETVEQLRKFNARRKLKGAVLAAVSSHKFNSFYGDPPEELPDFSEDPTS

variants of: B1; test: ITC; conditions: with CASK-CaMK (residues 1-337); Mint1-CID mutant titrated into CASK(1-337)
READOUT: pKd
Here pKd is given on a logarithmic scale as minus log10 of the concentration in mol/L.

Please look up its pKd: chain 1 I15A I18A I22A 6.57
